# Test system: DLD-1 colon
# assay_protocol: NCI tumour cell line growth inhibition, 48 h
# Lookup of reported TGI keyed by entry
readout_type: TGI

| molecule | result |
| --- | --- |
| Cc1cc(N(CC(C)Br)CC(C)Br)ccc1N=Nc1ccccc1C(=O)O (stereo not given) | 16.6 µM |
| OCC12C=CC(C1)c1ccccc12 (stereo not given) | > 100 µM |
| O=C(c1ccccc1)c1ccc2n[se]nc2c1 | > 100 µM |
| C=C1C(=O)OC2/C=C(\C(=O)O)CC/C=C(\C)CC(OC(=O)/C=C(\C)CC)C12 (stereo not given) | 43.6 µM |
| CCCCCCCCCCCC(=O)OCCOCCOCCOCCOCCOC(=O)CCCCCCCCCCC | > 100 µM |

###

# System: A498 renal
# assay_protocol: NCI tumour cell line growth inhibition, 48 h
Classify by measured TGI: Met if it is equal to or exceeds 30 µM, Not met if it is smaller.

| compound | class_label |
| --- | --- |
| C=CC[C@]1(/C=N/O)CN(S(=O)(=O)CC[Si](C)(C)C)C[C@H]2CC=CC[C@H]21 | Met |
| Cc1ccc2c(ccc(/C=C/c3ccc(O)c4ncccc34)[n+]2C)c1 | Not met |
| O=c1[nH]c2ccccc2cc1-c1nc2ccc(Cl)cc2[nH]1 | Not met |
| CCOP(=Nc1ccc(N(C)C)cc1)(OCC)OCC | Met |
| O=C1OC(CCCN2CCCCC2)(c2ccccc2)CC12CCCC2 (configuration not stated) | Met |
| CC(=O)OC1OC([C@H]2c3cccc(O)c3C(=O)c3c(O)cc(C)cc32)C(O)C(O)C1O (some centres not stated) | Not met |
| C#CCn1c(=O)c(I)cn(/C(=C/C(=O)OCC)C(=O)OCC)c1=O | Met |
| C/C(=N\NS(=O)(=O)c1ccc(C)cc1)c1ccccn1 | Met |
| CCCC(C)c1ccc(OCCCCCCN2CCNCC2)cc1 (configuration not stated) | Not met |
| O=C(/C=C/c1ccc(O)c(O)c1)OCC(OC(=O)/C=C/c1ccc(O)c(O)c1)C(=O)O (configuration not stated) | Met |
| CCN1C(=O)c2ccc3c4c(ccc(c24)C1=O)C(=O)N(CCCNCc1ccccc1OC)C3=O | Not met |
| COc1ccc(C=O)cc1O[Si](C)(C)C(C)(C)C | Met |
| COc1ccc2nc(N/N=C/c3sccc3C)cc(C)c2c1 | Not met |
| CCCCCCCCn1ccc2cc(NC(=O)Cn3cc(CN4CCCCCC4)nn3)ccc21 | Not met |
| COc1c(=O)cc2cc[nH]c3cc[nH]c1c23 | Met |
| C=C(C)C1CCC(C(=O)O)CC1 (configuration not stated) | Met |
| COc1cc(NS(=O)(=O)c2ccc(C)cc2)c2nccnc2c1 | Met |
| CCOC1C(Br)Cn2c(=O)c3cc4ccccc4cc3c(=O)n2C1C (configuration not stated) | Met |
| O=C(Nc1cccc(O)c1)C(=O)C1C(=O)NC(=S)NC1=O | Met |
| C[C@]12CC=CC(=O)[C@@]1(C)CCC(=O)C2 | Met |
| N[C@@H]1CCN(c2c(F)cc3c(=O)c(C(=O)O)cn4c3c2Oc2c-4ccc3c2ccc2ccccc23)C1 | Met |
| CC(=O)c1ccc(NC(=O)/C(CC(=O)c2sc(-c3cccnc3)nc2C)=N/NC(N)=O)cc1 | Met |
